Test system: replicon cells
conditionsUsed: human

{"structureAsSmiles": "C[C@@]1(c2ccc3c(N)ncnn23)O[C@H](CO)[C@@H](O)[C@H]1O", "CC50": "> 89 µM"}

Reference for the values: paper PMC7126871
